experiment: qHTS RealTime-Glo MT Cell Viability Assay in HEK293 cells - 8 hour (AID 1224887); conditions: RealTime-Glo luminescence; series mostly up to 76.8 µM; also: nearly all actives have a fitted effect of over 50% in size
Results filed as inconclusive are left out. Calls of active or inactive are those of the source. Calls follow the shape of the dose curve; as a rule, active = well fitted cell-killing curve with a large enough effect in the repeat runs; inconclusive = weak or mixed curves, or effect the other way; inactive = flat fitted curve, though single readings scatter.
Outcomes: Y (active), N (inactive)

CN(C)CCC=C1c2ccccc2CCc2ccccc21 ... N
COC(C)COC(C)COC(C)CO (configuration not stated) ... N
CCCCNS(=O)(=O)c1ccccc1 ... N
Cc1cccc([N+](=O)[O-])c1C ... N
CC(C)OC=O ... N
O=C(c1ccccc1)c1ccc(O)cc1O ... N
O=C(c1ccc(OCCN2CCCCC2)cc1)c1c(-c2ccc(O)cc2)sc2cc(O)ccc12 ... Y

----------
target: Cytochrome P450 2C19 (Homo sapiens) (UniProt P33261); test: Cytochrome P450 Family 2 Subfamily C Member 19 (CYP2C19) small molecule antagonists: luciferase reporter qHTS assay (AID 1671197); settings: P450-Glo CYP2C19 enzyme, luciferin luminescence, 1 h; series mostly up to 115 µM; also: nearly all actives have a fitted effect of over 65% in size
Sequence (P33261 whole entry, looked up): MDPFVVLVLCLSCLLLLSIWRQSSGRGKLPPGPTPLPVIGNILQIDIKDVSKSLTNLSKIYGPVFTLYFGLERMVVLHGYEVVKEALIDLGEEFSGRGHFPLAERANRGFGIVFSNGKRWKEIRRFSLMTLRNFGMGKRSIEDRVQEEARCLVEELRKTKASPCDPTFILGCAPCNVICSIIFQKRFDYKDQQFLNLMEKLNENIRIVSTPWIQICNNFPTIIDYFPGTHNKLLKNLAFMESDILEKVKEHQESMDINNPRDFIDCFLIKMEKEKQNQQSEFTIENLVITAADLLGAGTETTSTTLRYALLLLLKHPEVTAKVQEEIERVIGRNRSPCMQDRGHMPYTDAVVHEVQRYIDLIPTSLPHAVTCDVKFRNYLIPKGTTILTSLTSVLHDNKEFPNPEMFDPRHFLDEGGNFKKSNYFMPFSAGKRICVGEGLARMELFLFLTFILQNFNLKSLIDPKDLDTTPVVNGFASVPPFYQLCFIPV
Records with an inconclusive call do not appear. The source made the active and inactive calls. Calls come from the whole dose curve; as a rule, active = well fitted inhibition curve with a large enough effect in the repeat runs; inconclusive = weak or mixed curves; inactive = no such curve, though single readings can be large or run the other way.
Outcome codes: yes (1) (active), no (0) (inactive)

CCCCOCCOCCOCCO ... no (0)
c1ccc2cc(Nc3ccc(Nc4ccc5ccccc5c4)cc3)ccc2c1 ... no (0)
Oc1ccc(O)cc1 ... no (0)
CC(=O)C1(C)CC2=C(CCCC2(C)C)CC1C (stereo not given) ... no (0)
CC(C)Oc1ccc2c(=O)c(-c3ccccc3)coc2c1 ... no (0)
O=C1OC2(c3cc(Br)c(O)c(Br)c3Oc3c2cc(Br)c(O)c3Br)c2c(Cl)c(Cl)c(Cl)c(Cl)c21 ... yes (1)
C[Si](C)(C)O[Si](C)(C)C ... no (0)
OC1CCCCCCCCCCC1 ... no (0)
CN1C(C(=O)Nc2ccccn2)=C(O)c2ccccc2S1(=O)=O ... no (0)
COc1c(Cl)c(Cl)c(Cl)c(Cl)c1Cl ... no (0)
Cc1cccc(C(=O)O)c1 ... no (0)
CCC(C)c1ccccc1O (stereo not given) ... no (0)
CCCCC(CC)COCC1CO1 (stereo not given) ... no (0)
Cc1ccc2c(n1)Oc1ccc(C(C)C(=O)OCC(=O)N(C)C)cc1C2 (stereo not given) ... yes (1)
c1cc(-c2ccncc2)ccn1 ... yes (1)

----------
assay: qHTS assay to identify small molecule antagonists of the vitamin D receptor (VDR) signaling pathway - cell viability counter screen (AID 743225); conditions: VDR-bla HEK293T viability, CellTiter-Glo luminescence, 16 h; series mostly up to 61 µM; also: nearly all actives have a fitted effect of over 50% in size
Results filed as inconclusive are left out. Calls of active or inactive are those of the source. Calls come from the whole dose curve; as a rule, active = well fitted cell-killing curve with a large enough effect in the repeat runs; inconclusive = weak or mixed curves, or effect the other way; inactive = no such curve, though single readings can be large or run the other way.
MEASURE_NAME: outcome

O=C=Nc1ccc(Cc2ccc(N=C=O)cc2)cc1 ... inactive
CCCCC(CC)COP(=O)(OCC(CC)CCCC)OCC(CC)CCCC (stereo unspecified) ... inactive
C#C[C@]1(O)CC[C@H]2[C@@H]3CCc4cc(OC)ccc4[C@H]3CC[C@@]21C ... inactive
COc1c(Cl)c(Cl)c(Cl)c(Cl)c1Cl ... inactive
CCCCC(CC)COC(=O)c1ccc(N(C)C)cc1 (stereo unspecified) ... inactive
CN(C)CCN(Cc1cccs1)c1ccccn1 ... inactive

----------
assay: qHTS assay to identify small molecule antagonists of the estrogen receptor alpha (ER-alpha) signaling pathway - cell viability counter screen (AID 743074); details: ERalpha-bla HEK293 viability, CellTiter-Glo luminescence, 18 h; series mostly up to 69.4 µM;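 also: HEK293 cells carrying ER-alpha-UAS-bla reporter stimulated with 17beta-estradiol; nearly all actives have a fitted effect of over 45% in size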
Results filed as inconclusive are left out. Active and inactive are the calls of the source. Calls come from the whole dose curve.
Outcomes: Yes for active, No for inactive

CC(C(=O)O)c1cccc(C(=O)c2ccccc2)c1 (stereo not given) ... No
C=CC(C)(CCC=C(C)C)OC(C)=O (stereo not given) ... No
COC(=O)c1ccccc1 ... No
CC(C)OB(OC(C)C)OC(C)C ... No
C[C@]12CC[C@H]3[C@@H](CCC4=CC(=O)CC[C@@]43C)[C@@H]1CC[C@@H]2C(=O)CO ... No
C=C(C)C(=O)OCCOC(=O)C(=C)C ... No
Cn1cnc([N+](=O)[O-])c1Sc1ncnc2nc[nH]c12 ... No
OC(CCl)CCl ... No
O=C(O)c1ccccc1Nc1cccc(C(F)(F)F)c1 ... No
Nc1ccc(S(=O)(=O)Nc2cnc3ccccc3n2)cc1 ... No
Nc1ccc(Nc2ccccc2)cc1 ... No
CCC(C)(O)CCCC(C)C (stereo not given) ... No
C#C[C@]1(O)CC[C@H]2[C@@H]3CCc4cc(OC)ccc4[C@H]3CC[C@@]21C ... No
C[Si](C)(C)O[Si](C)(C)C ... No
Nc1ccccc1N ... No
CCCCCCCCCCCO ... No
Cc1cccc([N+](=O)[O-])c1C ... No
Cc1[nH]c(=O)c(C#N)cc1-c1ccncc1 ... No
Cc1c(C(N)=O)cc([N+](=O)[O-])cc1[N+](=O)[O-] ... No
Brc1cc(Oc2cc(Br)c(Br)c(Br)c2Br)c(Br)c(Br)c1Br ... No
Cc1ccc2c(n1)Oc1ccc(C(C)C(=O)OCC(=O)N(C)C)cc1C2 (stereo not given) ... No
c1ccc(Nc2ccccc2)cc1 ... No
CN(C)C(=N)N=C(N)N ... No
Cc1cccc(C(=O)O)c1 ... No
COC(=O)CCC(=O)OC ... No
CCCCCCCCCC(=O)OC ... No
CCCCC(CC)COP(=O)(OCC(CC)CCCC)OCC(CC)CCCC (stereo not given) ... No
O=S(=O)(O)c1ccc(O)cc1 ... No
C/C=C/C(=O)O ... No
Nc1ncnc2nc[nH]c12 ... No
CC1=CCC(C(C)(C)O)CC1 (stereo not given) ... No
CC(C)OC=O ... No
CCC(C)CO (stereo not given) ... No
C[C@]12CCC(=O)C=C1CC[C@@H]1[C@@H]2C(=O)C[C@@]2(C)[C@H]1CC[C@]2(O)C(=O)CO ... No
CC(C)(C)NC(=O)[C@H]1CC[C@H]2[C@@H]3CC[C@H]4NC(=O)C=C[C@]4(C)[C@H]3CC[C@]12C ... No
Clc1nc(Cl)c(Cl)c(Cl)c1Cl ... No
c1ccc2cc(Nc3ccc(Nc4ccc5ccccc5c4)cc3)ccc2c1 ... No
O=CCCCC=O ... No
COc1ccccc1/C=C/C=O ... No
CN(C)CCN(Cc1cccs1)c1ccccn1 ... No
COc1cccc2c1C(=O)c1c(O)c3c(c(O)c1C2=O)C[C@@](O)(C(=O)CO)C[C@@H]3O[C@H]1C[C@H](N)[C@H](O)[C@H](C)O1 ... No
COc1ccc(C(=O)CC(=O)c2ccc(C(C)(C)C)cc2)cc1 ... No
NNc1ccc(C(=O)O)cc1 ... No
CC(C)=CCCC(C)CCO (stereo not given) ... No
c1ccc2sc(SSN3CCOCC3)nc2c1 ... No
O=C1c2cccc(O)c2C(=O)c2c(O)cccc21 ... No
C=C(C)C1CC=C(C)CC1 (stereo not given) ... No
c1cc(N(CC2CO2)CC2CO2)ccc1OCC1CO1 (stereo not given) ... No
S=C(NC1CCCCC1)NC1CCCCC1 ... Yes
CC(C)=CCC/C(C)=C\CO ... No
C#C[C@]1(O)CC[C@H]2[C@@H]3CCC4=Cc5oncc5C[C@]4(C)[C@H]3CC[C@@]21C ... No
Cc1c(OCC(F)(F)F)ccnc1CS(=O)c1nc2ccccc2[nH]1 (stereo not given) ... No
COC(=O)C1=C(C)NC(C)=C(C(=O)OCCN(C)Cc2ccccc2)C1c1cccc([N+](=O)[O-])c1 (stereo not given) ... No
CCCCOCCOCCO ... No
CC(C)OC(=O)C(C)(C)Oc1ccc(C(=O)c2ccc(Cl)cc2)cc1 ... No

----------
assay: qHTS assay to identify small molecule agonists of the retinoic acid receptor (RAR) signaling pathway (AID 1159553); conditions: C3RL4 RARE luciferase reporter, agonist, 6 h; series mostly up to 73.3 µM
Results filed as inconclusive are left out. Activity calls are given as the source filed them. The call rests on the fitted dose curve; in most records, active means well fitted activation curve with a large enough effect in the repeat runs; inconclusive means weak or mixed curves, or effect the other way; inactive means no such curve, though single readings can be large or run the other way.
Outcomes: label 1 for active, label 0 for inactive

Cc1cccc(C(=O)O)c1 ... label 0
COc1ccc(OC)c(C(O)CNC(=O)CN)c1 (configuration not stated) ... label 0
CC(C)(C)NC(=O)[C@H]1CC[C@H]2[C@@H]3CC[C@H]4NC(=O)C=C[C@]4(C)[C@H]3CC[C@]12C ... label 0
Oc1ccc(O)cc1 ... label 0
CCCCC(CC)COC(=O)c1ccc(N(C)C)cc1 (configuration not stated) ... label 0
O=C=Nc1ccc(Cc2ccc(N=C=O)cc2)cc1 ... label 0
COc1cc([C@@H]2c3cc4c(cc3[C@H](O)[C@H]3COC(=O)[C@H]23)OCO4)cc(OC)c1OC ... label 0
O=[N+]([O-])c1ccc2c(c1)Cc1ccccc1-2 ... label 0
O=CCc1ccccc1 ... label 0
Cc1cc2nc3c(=O)[nH]c(=O)nc-3n(C[C@H](O)[C@H](O)[C@H](O)CO)c2cc1C ... label 0
CCCCCCCCCCCO ... label 0
CCC(C)OC(=O)c1ccc(O)cc1 (configuration not stated) ... label 1
